read-out: Pro-epidermal growth factor (Homo sapiens); assay: LTEA_HepaRG_EGF: Life Technologies and Expression Analysis (LTEA) Assay for Epidermal growth factor (EGF) using HepaRG (AID 2283489); conditions: mRNA level, 48 h; actives raise or lower the signal
Calls of active or inactive are those of the source. Rule for the calls: active = hit-call score of the fitted dose curve at least 0.9, where 1 is the maximum; inactive = score below 0.9.
Your answer must be one of the following: 1 = active, -1 = inactive

Exam item: Look up the recorded call for CCCN(CCC)C(=O)SCC in this test.
Marked response: -1

Exam item: Look up the recorded call for CN(C)C(=O)Nc1ccc(Cl)c(Cl)c1 in this test.
Marked response: -1

Exam item: Look up the recorded call for CCOC(=O)C(C)Oc1ccc(Oc2cnc3cc(Cl)ccc3n2)cc1 (stereo not given) in this test.
Marked response: -1

Further cases:
Exam item: Look up the recorded call for N#CSCSc1nc2ccccc2s1 in this test.
Marked response: -1

Exam item: Look up the recorded call for CCCN(CCC)c1c([N+](=O)[O-])cc(C(F)(F)F)c(N)c1[N+](=O)[O-] in this test.
Marked response: 1

Exam item: Look up the recorded call for CC(=O)S[C@@H]1CC2=CC(=O)CC[C@]2(C)[C@H]2CC[C@@]3(C)[C@@H](CC[C@@]34CCC(=O)O4)[C@H]12 in this test.
Marked response: -1

Exam item: Look up the recorded call for CC1(C)C(C=C(Cl)Cl)C1C(=O)OCc1cccc(Oc2ccccc2)c1 (stereo not given) in this test.
Marked response: -1

* * *

assay: ATG_AP_2_CIS: Attagene CIS-FACTORIAL HepG2 Assay for human Activator Protein 2 (AP-2) (AID 2282932); settings: HepG2 AP-2 cis-reporter, Attagene transcription factor profiling; actives raise or lower the signal
Activity calls are given as the source filed them. How the source made its calls: active means hit-call score of the fitted dose curve at least 0.9, where 1 is the maximum; inactive means score below 0.9.
Your answer must be one of the following: y (active), n (inactive)

Here's what some known entries look like.
Exam item: Look up the recorded call for CCOC(=O)[C@H](C)Oc1ccc(Oc2nc3ccc(Cl)cc3o2)cc1 in this test.
Marked response: n

Exam item: Look up the recorded call for COC(=O)CSc1cc(N=c2sc(=O)n3n2CCCC3)c(F)cc1Cl in this test.
Marked response: n

Exam item: Look up the recorded call for C[C@]12C[C@H](O)[C@H]3[C@@H](CCC4=CC(=O)CC[C@@]43C)[C@@H]1CC[C@@H]2C(=O)CO in this test.
Marked response: n

Exam item: Look up the recorded call for CCOC(=O)c1ccc(O)cc1 in this test.
Marked response: n

Further cases:
Exam item: Look up the recorded call for COC(=O)c1c(Cl)nn(C)c1S(=O)(=O)NC(=O)Nc1nc(OC)cc(OC)n1 in this test.
Marked response: n

Exam item: Look up the recorded call for CCCCOC(=O)C(C)Oc1ccc(Oc2ccc(C(F)(F)F)cn2)cc1 (centres undefined) in this test.
Marked response: n

Exam item: Look up the recorded call for Oc1ccc(C(c2ccc(O)cc2)C(Cl)(Cl)Cl)cc1 in this test.
Marked response: n

Exam item: Look up the recorded call for O=C(c1ccc(O)cc1O)c1ccc(O)cc1O in this test.
Marked response: n

Exam item: Look up the recorded call for CCCCOC(=O)[C@@H](C)Oc1ccc(Oc2ccc(C(F)(F)F)cn2)cc1 in this test.
Marked response: n

* * *

// AC50 lookup, one value per entry
system: rat CYP3A1, gene 25642; experiment: NVS_ADME_rCYP3A1: NovaScreen (NVS) CYP450-related Enzyme Activity (ADME) Assay for rat CYP3A1 (AID 2283126)
Calls of active or inactive are those of the source. How the source made its calls: active means hit-call score of the fitted dose curve at least 0.9, where 1 is the maximum; inconclusive means response in the unintended direction; inactive means score below 0.9.

Examples from the recorded data:
Exam item: Entry under review: S=C(S)NCCNC(=S)S.[Mn+2].[S-]C([S-])=NCCN=C([S-])[S-].[Zn+2] . Reported AC50?
Marked response: 10 µM (active)

Exam item: Entry under review: CCCCC(CC)CN1C(=O)C2C3C=CC(C3)C2C1=O (configuration not stated) . Reported AC50?
Marked response: 6.63 µM (active)

Exam item: Entry under review: CCN(Cc1c(F)cccc1Cl)c1c([N+](=O)[O-])cc(C(F)(F)F)cc1[N+](=O)[O-] . Reported AC50?
Marked response: 6.19 µM (active)

Further cases:
Exam item: Entry under review: Oc1ccc(C(c2ccc(O)cc2)C(Cl)(Cl)Cl)cc1 . Reported AC50?
Marked response: 2.7 µM (active)

Exam item: Entry under review: CSC(=O)c1cccc2nnsc12 . Reported AC50?
Marked response: 4.28 µM (active)

Exam item: Entry under review: CC(C)(c1ccc(O)cc1)c1ccc(O)cc1 . Reported AC50?
Marked response: 9.88 µM (active)

Exam item: Entry under review: CCCCOCCOCCOCc1cc2c(cc1CCC)OCO2 . Reported AC50?
Marked response: 5.03 µM (active)

* * *

target: Retinoic acid receptor RXR-alpha (Homo sapiens) (UniProt P19793); assay: OT_NURR1_NURR1RXRa_0480: Odyssey Thera (OT) 8-hour HEK293T Protein Complementation Assay for Nurr1/retinoid X receptor (RXR) (AID 2283385)
Sequence (P19793 whole entry, looked up): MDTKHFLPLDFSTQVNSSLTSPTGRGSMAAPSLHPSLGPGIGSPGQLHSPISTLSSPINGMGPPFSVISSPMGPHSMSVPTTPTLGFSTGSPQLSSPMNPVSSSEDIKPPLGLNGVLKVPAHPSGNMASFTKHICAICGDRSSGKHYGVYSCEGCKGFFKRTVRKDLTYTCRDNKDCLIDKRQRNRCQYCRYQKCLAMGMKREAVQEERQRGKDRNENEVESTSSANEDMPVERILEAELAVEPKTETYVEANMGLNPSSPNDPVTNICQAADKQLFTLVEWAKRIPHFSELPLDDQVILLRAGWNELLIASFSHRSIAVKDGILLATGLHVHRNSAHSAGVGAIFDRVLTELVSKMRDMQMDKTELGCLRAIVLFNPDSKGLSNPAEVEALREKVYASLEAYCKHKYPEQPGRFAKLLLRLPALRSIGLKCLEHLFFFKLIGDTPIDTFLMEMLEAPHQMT
Inconclusive results are not listed. The source made the active and inactive calls. The calls were made as follows: active = hit-call score of the fitted dose curve at least 0.9, where 1 is the maximum; inconclusive = response in the unintended direction; inactive = score below 0.9.
Your answer must be one of the following: true (active), false (inactive)

Here's what some known entries look like.
Exam item: Look up the recorded call for O=C(c1ccc(O)cc1O)c1ccc(O)cc1O in this test.
Marked response: false

Exam item: Look up the recorded call for CCNc1nc(N)nc(Cl)n1 in this test.
Marked response: false

Further cases:
Exam item: Look up the recorded call for O=C(c1ccccc1)C1CCCCC1 in this test.
Marked response: false

Exam item: Look up the recorded call for c1ccc(Nc2ccccc2)cc1 in this test.
Marked response: true

Exam item: Look up the recorded call for S=C(S)NCCNC(=S)S.[Mn+2].[S-]C([S-])=NCCN=C([S-])[S-].[Zn+2] in this test.
Marked response: false

* * *

read-out: Tumor necrosis factor (Homo sapiens) (UniProt P01375); assay: BSK_LPS_TNFa: BioMAP Diversity Plus: LPS Assay for Tumour Necrosis Factor alpha (TNFa) Biomarker Activity (AID 2283085); details: primary human HUVEC with PBMC; actives raise or lower the signal
Sequence (P01375 whole entry, looked up): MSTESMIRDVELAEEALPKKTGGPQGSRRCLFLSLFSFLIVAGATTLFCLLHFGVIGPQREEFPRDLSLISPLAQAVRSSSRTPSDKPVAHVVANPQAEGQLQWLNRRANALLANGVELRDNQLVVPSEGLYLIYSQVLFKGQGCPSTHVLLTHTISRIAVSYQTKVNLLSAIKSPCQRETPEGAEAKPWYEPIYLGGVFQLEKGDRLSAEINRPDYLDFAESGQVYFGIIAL
Calls of active or inactive are those of the source. How the source made its calls: active means hit-call score of the fitted dose curve at least 0.9, where 1 is the maximum; inactive means score below 0.9.
Your answer must be one of the following: active, inactive

Here's what some known entries look like.
Exam item: Look up the recorded call for COC(=O)CSc1cc(N=c2sc(=O)n3n2CCCC3)c(F)cc1Cl in this test.
Marked response: active

Exam item: Look up the recorded call for O=C(c1ccc(O)cc1O)c1ccc(O)cc1O in this test.
Marked response: inactive

Exam item: Look up the recorded call for O=C(O)C1(C(=O)Nc2ccc(Cl)cc2Cl)CC1 in this test.
Marked response: inactive

Exam item: Look up the recorded call for CCCCOC(=O)[C@@H](C)Oc1ccc(Oc2ccc(C(F)(F)F)cn2)cc1 in this test.
Marked response: inactive

Exam item: Look up the recorded call for CC(C)CCCCCCc1ccc(O)cc1 in this test.
Marked response: active

Further cases:
Exam item: Look up the recorded call for N[C@@H](Cc1cc(I)c(Oc2ccc(O)c(I)c2)c(I)c1)C(=O)O in this test.
Marked response: inactive

Exam item: Look up the recorded call for C#C[C@]1(O)CC[C@H]2[C@@H]3CCC4=CC(=O)CC[C@@H]4[C@H]3CC[C@@]21CC in this test.
Marked response: inactive

* * *

read-out: Vascular endothelial growth factor receptor 2 (Homo sapiens) (UniProt P35968); test: BSK_4H_VEGFRII: BioMAP Diversity Plus: 4H Assay for Vascular endothelial growth factor receptor 2 (VEGFR2) Biomarker Activity (AID 2283031); conditions: primary human endothelial cells (HUVEC); actives raise or lower the signal
Activity calls are given as the source filed them. The calls were made as follows: active = hit-call score of the fitted dose curve at least 0.9, where 1 is the maximum; inactive = score below 0.9.
Your answer must be one of the following: active, inactive

Here's what some known entries look like.
Exam item: Look up the recorded call for CCOC(=O)NCCOc1ccc(Oc2ccccc2)cc1 in this test.
Marked response: inactive

Exam item: Look up the recorded call for CCCCC(CC)COC(=O)c1ccccc1C(=O)O (stereo unspecified) in this test.
Marked response: inactive

Exam item: Look up the recorded call for CCCCOC(=O)C(C)Oc1ccc(Oc2ccc(C(F)(F)F)cn2)cc1 (stereo unspecified) in this test.
Marked response: inactive

Exam item: Look up the recorded call for COC(=O)c1cccc(C)c1S(=O)(=O)NC(=O)Nc1nc(OCC(F)(F)F)nc(N(C)C)n1 in this test.
Marked response: inactive

Exam item: Look up the recorded call for COC(=O)c1c(Cl)nn(C)c1S(=O)(=O)NC(=O)Nc1nc(OC)cc(OC)n1 in this test.
Marked response: inactive

Further cases:
Exam item: Look up the recorded call for C[C@]12CC[C@@H]3c4ccc(O)cc4C[C@@H](CCCCCCCCCS(=O)CCCC(F)(F)C(F)(F)F)[C@H]3[C@@H]1CC[C@@H]2O (stereo partly specified) in this test.
Marked response: inactive

Exam item: Look up the recorded call for CCSC(=O)N(CC(C)C)CC(C)C in this test.
Marked response: inactive

Exam item: Look up the recorded call for COC(=O)c1ccc(I)cc1S(=O)(=O)NC(=O)Nc1nc(C)nc(OC)n1 in this test.
Marked response: inactive

Exam item: Look up the recorded call for CCCCCCC(C)OC(=O)COc1nc(F)c(Cl)c(N)c1Cl (stereo unspecified) in this test.
Marked response: active

Exam item: Look up the recorded call for CCCN(CCC)C(=O)SCC in this test.
Marked response: inactive

Exam item: Look up the recorded call for CCCCC(CC)CN1C(=O)C2C3C=CC(C3)C2C1=O (stereo unspecified) in this test.
Marked response: inactive
